assayedTarget: T1, recombinant hMCAM-His (human, UniProt P43121 24-559)
T1 construct: not shown: His tag
T1 chain: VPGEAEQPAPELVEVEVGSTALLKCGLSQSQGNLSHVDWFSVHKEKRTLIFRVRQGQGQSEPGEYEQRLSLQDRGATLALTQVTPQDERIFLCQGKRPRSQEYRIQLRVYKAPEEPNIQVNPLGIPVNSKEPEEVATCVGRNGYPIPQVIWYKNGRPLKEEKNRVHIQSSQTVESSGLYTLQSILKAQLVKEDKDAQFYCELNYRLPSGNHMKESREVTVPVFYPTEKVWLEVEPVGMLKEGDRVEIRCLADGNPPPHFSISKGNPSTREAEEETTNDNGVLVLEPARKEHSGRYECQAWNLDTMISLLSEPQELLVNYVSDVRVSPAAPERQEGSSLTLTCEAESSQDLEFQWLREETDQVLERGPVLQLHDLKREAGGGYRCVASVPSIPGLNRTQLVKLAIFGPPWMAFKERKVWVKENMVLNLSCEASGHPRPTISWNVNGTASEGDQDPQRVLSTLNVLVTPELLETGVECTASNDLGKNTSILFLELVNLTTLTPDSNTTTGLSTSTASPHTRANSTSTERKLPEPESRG
testMethodNotes: competitive ELISA on hMCAM-His, competitor biotinylated rodent or chimeric 2120; vs rodent 2120

binder	fold over rodent (competitive ELISA) / fold
h2120_VH1 + h2120_VL1 (antibody, human IgG1, V domains shown) VH: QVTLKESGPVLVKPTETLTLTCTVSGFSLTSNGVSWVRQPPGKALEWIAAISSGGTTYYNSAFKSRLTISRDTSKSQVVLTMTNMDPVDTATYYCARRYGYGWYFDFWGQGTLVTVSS VL: DIQMTQSPSSLSASVGDRVTITCKASQNIYNSLAWYQQKPGKAPKVLIFNANSLQTGIPSRFSGSGSGTDFTLTISSLQPEDFATYYCQQFYSGYTFGQGTKLEIK	3.1
h2120_VH5 + h2120_VL3 (antibody, human IgG1, V domains shown, also called h2120VH5VL3; VH5VL3) VH: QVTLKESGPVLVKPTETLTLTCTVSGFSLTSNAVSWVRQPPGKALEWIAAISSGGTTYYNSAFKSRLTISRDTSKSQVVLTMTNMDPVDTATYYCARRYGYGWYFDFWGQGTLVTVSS VL: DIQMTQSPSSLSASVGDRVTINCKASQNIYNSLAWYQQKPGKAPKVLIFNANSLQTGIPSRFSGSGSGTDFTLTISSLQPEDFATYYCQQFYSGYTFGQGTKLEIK	2.4
h2120_VH1 + h2120_VL3 (antibody, human IgG1, V domains shown) VH: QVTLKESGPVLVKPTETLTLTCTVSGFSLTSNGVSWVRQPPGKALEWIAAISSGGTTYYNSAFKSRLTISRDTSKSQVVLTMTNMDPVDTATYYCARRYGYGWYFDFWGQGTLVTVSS VL: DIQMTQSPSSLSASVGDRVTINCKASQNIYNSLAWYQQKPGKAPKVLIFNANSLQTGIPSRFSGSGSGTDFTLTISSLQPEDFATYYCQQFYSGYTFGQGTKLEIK	1.8
h2120_VH4 + h2120_VL3 (antibody, human IgG1, V domains shown) VH: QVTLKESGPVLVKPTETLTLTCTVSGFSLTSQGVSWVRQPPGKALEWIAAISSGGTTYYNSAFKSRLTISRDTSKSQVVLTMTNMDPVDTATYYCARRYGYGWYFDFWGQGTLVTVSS VL: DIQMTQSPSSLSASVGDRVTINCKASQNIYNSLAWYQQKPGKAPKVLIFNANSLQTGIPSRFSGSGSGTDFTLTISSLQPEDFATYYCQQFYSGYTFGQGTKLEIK	5
h2120_VH1 + h2120_VL2 (antibody, human IgG1, V domains shown) VH: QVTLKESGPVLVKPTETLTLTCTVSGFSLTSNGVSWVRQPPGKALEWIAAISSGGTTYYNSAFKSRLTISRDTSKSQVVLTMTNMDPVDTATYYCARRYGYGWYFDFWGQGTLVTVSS VL: DIQMTQSPSSLSASVGDRVTITCKASQNIYNSLAWYQQKPGKAPKVLIFNANSLQTGVPSRFSGSGSGTDFTLTISSLQPEDFATYYCQQFYSGYTFGQGTKLEIK	3.1
